- Target under test: O-acetylserine sulfhydrylase A (OASS-A, CysK) (Salmonella enterica, UniProt P0A1E3)
- Construct: recombinant STOASS-A, His-tag removed with factor Xa
- Sequence (P0A1E3 2-323): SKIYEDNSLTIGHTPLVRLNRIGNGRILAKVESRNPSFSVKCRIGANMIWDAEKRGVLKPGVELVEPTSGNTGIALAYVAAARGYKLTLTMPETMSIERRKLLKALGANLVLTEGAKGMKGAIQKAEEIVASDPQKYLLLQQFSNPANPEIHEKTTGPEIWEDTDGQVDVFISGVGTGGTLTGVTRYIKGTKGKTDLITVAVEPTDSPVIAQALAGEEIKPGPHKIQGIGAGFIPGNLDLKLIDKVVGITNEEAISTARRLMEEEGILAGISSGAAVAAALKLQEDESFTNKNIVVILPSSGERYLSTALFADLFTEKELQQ
- Test description: ninhydrin cysteine activity assay; inactivation kinetics; PLP absorbance and fluorescence changes
- Format: biochemical
Quantity name: pIC50
Scale: negative log10 of molar concentration, which is what pIC50 denotes.

For N[C@H](C(=O)O)C(F)(F)F , what is its reported pIC50?
3.89

###

- Target under test: O-acetylserine sulfhydrylase B (OASS-B, CysM) (Salmonella enterica)
- Construct: recombinant STOASS-B, His-tag removed with factor Xa
- Sequence (P29848 whole entry): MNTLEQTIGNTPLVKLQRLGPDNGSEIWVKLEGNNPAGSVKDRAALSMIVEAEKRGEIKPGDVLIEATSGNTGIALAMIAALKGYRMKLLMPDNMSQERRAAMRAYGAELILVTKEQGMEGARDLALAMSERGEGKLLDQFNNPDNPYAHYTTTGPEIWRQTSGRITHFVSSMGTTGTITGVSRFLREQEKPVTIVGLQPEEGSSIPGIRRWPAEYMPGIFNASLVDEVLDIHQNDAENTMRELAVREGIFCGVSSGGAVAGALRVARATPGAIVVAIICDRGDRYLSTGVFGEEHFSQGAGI
- Test description: ninhydrin cysteine activity assay; inactivation kinetics; PLP absorbance and fluorescence changes
- Type: biochemical
Quantity name: IC50 (µM)
Please reply with the bare figure in µM and do not write the unit itself.

For N[C@H](C(=O)O)C(F)(F)F , what is its reported IC50?
940
